# Test system: NCI-H522 lung
# Measurement notes: NCI tumour cell line growth inhibition, 48 h
Reported TGI values follow for various compounds
Unit µM implied. Number only.

Answered examples (2):
- Record smiles: "O=C(/C=C\\c1ccc(O)c(O)c1)c1ccccc1O"
  Target under test: "NCI-H522 lung"
  Recorded endpoint: "TGI"
  Number: 0.809
- Record smiles: "COc1ccc(/C=C/C(=O)c2cc(OC)cc(OC)c2)cc1"
  Target under test: "NCI-H522 lung"
  Recorded endpoint: "TGI"
  Number: 6.29

Moving on to another compound below.
Query: Respond only with TGI recorded for `COC(=O)c1cc2ccc(O)c(O)c2cn1`
Response: 37.9

* * *

# Tested on: COLO 205 colon
# Measurement notes: NCI tumour cell line growth inhibition, 48 h
Param threshold (7 µM) applies to TGI; output rule met when value >= threshold, rule not met when value < threshold.

Answered examples (5):
- Compound: "Cc1cn2cc(-c3cccs3)nc2s1"
  Label class: "rule met"
- Compound: "NC(N)NCCCc1cn2c(n1)C1CCCN1C(=O)C2Cc1ccccc1 (configuration not stated)"
  Label class: "rule met"
- Compound: "O=C1CSC(c2c[nH]c3ccccc23)N1c1cccc(Cl)c1 (configuration not stated)"
  Label class: "rule met"
- Compound: "ClC1=C(Cl)C(Cl)(C2(Cl)C(Cl)=C(Cl)C(Cl)=C2Cl)C(Cl)=C1Cl"
  Label class: "rule not met"
- Compound: "NC(Cc1ccc(CP(=O)(O)O)cc1)C(=O)O (configuration not stated)"
  Label class: "rule met"

Query: Hi, just wondering whether `O=C(CCCc1ccc(N(CCCl)CCCl)cc1)NCc1ccccc1` shows TGI of 7 µM or higher.
Response: rule met

Query: In plain terms: is recorded TGI at least 7 µM for `COC(=O)c1c2c(c(C)[n+]([O-])c1C)C(=O)C(NCc1ccc(OC)cc1)=CC2=O` ?
Response: rule not met

Query: Quick check: does C=C(Br)C(C)(Cl)CCC(Br)C(C)(C)Br (configuration not stated) have TGI greater than or equal to 7 µM?
Response: rule met

Query: Say whether `CCNC1=C(NC(=O)c2ccc(F)cc2)C(=O)c2ccccc2C1=O` shows TGI of 7 µM or more.
Response: rule met

Query: Check this compound for TGI at or above 7 µM: `NS(=O)(=O)c1ccc(NC(=S)NC(=O)Nc2ccc(Cl)c(Cl)c2)cc1`
Response: rule met

Query: Identify whether the reported TGI of the following compound is 7 µM or greater: `CC(C)=CCC[C@@H](C)[C@H]1CC[C@@]2(C)[C@@H]3CC[C@H]4C(C)(C)[C@@H](O)CC[C@@]45C[C@@]35CC[C@]12C`
Response: rule met

* * *

A collection of compounds and their measured TGI
# System: EKVX NSCLC
# Measurement notes: NCI tumour cell line growth inhibition, 48 h

- Compound: "COC(=O)c1cc2ccc(O)c(O)c2cn1"
  TGI: "38.4 µM"
- Compound: "CC[C@@H]1/C=C/C=C/C[C@H](C)[C@@H](O)[C@@H](C)C(=O)[C@H](C)[C@@H](O)[C@H](C)C(=O)[C@H](C)[C@@H](O)[C@H](C)/C=C/C(=O)O[C@H]2[C@@H](C)[C@@H](CC1)O[C@@]1(CC[C@@H](C)[C@@H](CC(C)O)O1)[C@@H]2C (some centres undefined)"
  TGI: "7.44 µM"
- Compound: "O=C(NCc1cn(Cc2cccc(Oc3ccccc3)c2)nn1)c1cccnc1Nc1ccc(F)cc1"
  TGI: "> 100 µM"
- Compound: "CC(=O)C1(O)CC2(c3ccccc3)C(=O)C1(c1ccccc1)C(c1ccccc1)=C2c1ccccc1 (centres undefined)"
  TGI: "> 100 µM"
- Compound: "C=C1c2nc3ccccc3n2C=C(c2ccc(OC)cc2)N1c1ccc(OCCN2CCCCC2)cc1"
  TGI: "> 100 µM"

Query: For the compound `N#Cc1cc2c(cc1C#N)SCCSCCCSCCS2` , report TGI.
Response: > 100 µM

Query: Give a short answer stating reported TGI for N=c1sc2ccccc2n1CCS (tested in a mixture with another compound) .
Response: 62.3 µM

Query: For the compound COCCN(C(=O)c1ccccc1)C1CCC2(SCCS2)c2[nH]c3ccccc3c21 (centres undefined) , give its reported TGI.
Response: > 100 µM

Query: Provide one value: measured TGI of `CC(=O)/C(=C\c1ccc(Cl)cc1)c1ccccc1`
Response: > 100 µM

* * *

# Tested on: MCF7 breast
# Measurement notes: NCI tumour cell line growth inhibition, 48 h
Recorded endpoint: TGI (µM)
Value expressed in µM; do not type the unit.

Illustrative cases are given below, each with its answer.
- Compound: "CC(=O)N1C=Cc2c(c(C)c3c([nH]c4ccccc43)c2C)C1"
  Units text: "µM"
  TGI: 18.5
- Compound: "CC(C)=CCc1cc2c(cc1O)C1=C(C(=O)C3=C(NCCS3(=O)=O)C1=O)C(C=C(C)C)O2 (centres undefined)"
  Units text: "µM"
  TGI: 7.84

Query: Please indicate TGI recorded for CSC(=S)CC(O)[C@@H]1CC2c3ccccc3C1c1ccccc12 (some centres undefined)
Response: 62.1

Query: Specify TGI for `Cc1cn([C@@H]2O[C@H](CO[Si](C)(C)C(C)(C)C)[C@]3(O[C@H]3C(=O)NO)[C@H]2O[Si](C)(C)C(C)(C)C)c(=O)[nH]c1=O` and stop.
Response: 3.15

* * *

# Test system: NCI/ADR-RES ovarian
# Measurement notes: NCI tumour cell line growth inhibition, 48 h; in the data active = GI50 below about 0.43 µM; inactive = the rest
Allowed answers: T (active), F (inactive)

Solved cases below.
- Molecule: "NS(=O)(=O)c1ccc(N(/C=C/C(=O)C(F)(F)F)CC(=O)c2ccc(F)cc2)cc1"
  Target under test: "NCI/ADR-RES ovarian"
  Label class: "F"
- Molecule: "O=C(NCc1cn(Cc2cccc(Oc3ccccc3)c2)nn1)c1cccnc1Nc1ccc(F)cc1"
  Target under test: "NCI/ADR-RES ovarian"
  Label class: "F"
- Molecule: "CC(C)=CCc1cc2c(cc1O)C1=C(C(=O)C3=C(NCCS3(=O)=O)C1=O)C(C=C(C)C)O2 (configuration not stated)"
  Target under test: "NCI/ADR-RES ovarian"
  Label class: "F"

Query: Please share the test call associated with COc1ccc(C2=NN(C(N)=S)C(c3ccc4c(c3)OCO4)C2)cc1 (configuration not stated) .
Response: F

Query: Hello, I am checking results. What call was entered for `N#CCCNc1nonc1-c1nc2ccccc2n1CC(=O)c1ccc(N)cc1` ?
Response: T

Query: How did this test come out for `c1ccc(-c2c(-c3ccccc3)[n+](Cc3ccc4ccccc4c3)cn2Cc2ccc3ccccc3c2)cc1` ?
Response: F

Query: Please indicate how the test categorized `COC(=O)c1c2c(c(C)[n+]([O-])c1C)C(=O)C(NCc1ccc(OC)cc1)=CC2=O` .
Response: F

Query: Kindly provide the recorded test outcome for the following molecule: `O=c1nc2n(-c3cccc(Cl)c3)c3ccc([N+](=O)[O-])cc3cc-2c(=O)[nH]1`
Response: F

Query: Assay result, entry CC(C)=CC[C@@H]1CC2(CC=C(C)C)C(=O)C(OC3(C(=O)c4ccccc4)C(=O)C4(CC=C(C)C)C[C@@H](CC=C(C)C)C(C)(C)C(CC=C(C)C)(C4=O)C3=O)(C(=O)c3ccccc3)C(=O)C(CC=C(C)C)(C2=O)C1(C)C (some centres not stated) — outcome?
Response: F

Query: Record request — test call for N#CC1=C(N)Oc2c(sc3c(Br)cccc23)C1c1ccc([N+](=O)[O-])cc1 (configuration not stated)
Response: T

Query: # outcome recorded in this test, key = `O=[N+]([O-])c1ccc(C2=NCCO2)cc1`
Response: F

* * *

# System: OVCAR-8 ovarian
# Measurement notes: NCI tumour cell line growth inhibition, 48 h
Recorded endpoint: log10(TGI) (log10 of the value in µM)
// do not treat as linear: log10 of TGI, unit µM

Before answering, review these 7 worked examples.
- Compound: "O=C1NN2CC(c3ccccc3)=NN=C2c2ccccc21"
  log10(TGI): 1.87
- Compound: "CC(=O)OCC1C(=O)OCC1C(=O)N1Cc2cc3ccccc3nc2C1 (centres undefined)"
  log10(TGI): 1.06
- Compound: "CC(C)(C)N(Cc1ccccc1)C(=O)/C=C\\S(=O)c1ccccc1 (centres undefined)"
  log10(TGI): 0.62
- Compound: "Cc1c2cnccc2c(C)c2c1c1ccccc1n2CCOC(=O)c1ccccc1"
  log10(TGI): 1.43
- Compound: "COc1ccc2c(c1)[C@@H](NC(C)=O)CCc1cc(OC)c(OC)c(OC)c1-2"
  log10(TGI): 0.10
- Compound: "O=C(O)c1ccc(N(/C=C/C(=O)C(F)(F)F)Cc2ccc(Cl)cc2)cc1"
  log10(TGI): 1.89
- Compound: "CC1=C(O)C(=O)C=C2C1=CC=C1[C@@]2(C)CC[C@@]2(C)C3C[C@@H](C)C(=O)[C@@H](O)[C@]3(C)CC[C@]12C (some centres undefined)"
  log10(TGI): 0.74

Moving on to the next compound.
Query: Retrieve log10(TGI) measured for `Cc1ccc(N)c(S)c1` and print it.
Response: 1.49
